Reported viability, T/C is given for each of the following compounds.
Tested on: 377384-186-R-J1-PDC complex spheroid viability
Assay: Anticancer human tumor 377384-186-R-J1-PDC patient-derived pancreatic carcinoma cell line growth inhibition [RAS]
Settings: second compound 0.003 µM; first compound 0.1 µM; stronger effect = lower value
From the text: RAS pathway inhibitors in Combinations in Complex Spheroids A high-throughput screen of multi-cell type tumor spheroids was designed to identify active combinations of RAS pathway inhibitors and targeted small molecules. Complex spheroids include a stromal component modeled by human endothelial cells (HUVEC) and fibroblasts modeled by human mesenchymal stem cells (MSCs). […] Compounds. […] If the clinical Cmax for an agent had not been determined, the highest concentration tested was 10 microM. […]
Only the number, expressed in %, is required.

What measured viability, T/C goes with CCN1CCN(Cc2ccc(Nc3ncc(F)c(-c4cc(F)c5nc(C)n(C(C)C)c5c4)n3)nc2)CC1 + CCn1c(-c2cccnc2C(C)OC)c2c3cc(ccc31)N1CCOC(CC(NC(=O)C(C(C)C)N(C)C(=O)C3(F)CCN(C(=O)C#CC(C)(C)N(C)C)CC3)C(=O)N3CCCC(N3)C(=O)OCC(C)(C)C2)C1 ?
54.6

What about this compound? C[C@@H](NC(=O)c1ncnc(N)c1Cl)c1ncc(C(=O)Nc2cc(C(F)(F)F)c(Cl)cn2)s1 + CCn1c(-c2cccnc2C(C)OC)c2c3cc(ccc31)N1CCOC(CC(NC(=O)C(C(C)C)N(C)C(=O)C3(F)CCN(C(=O)C#CC(C)(C)N(C)C)CC3)C(=O)N3CCCC(N3)C(=O)OCC(C)(C)C2)C1
104

What about this compound? C=CC(=O)N1CCN(c2nc(OCC3CCCN3C)nc3c(F)c(-c4nc(N)cc(C)c4C(F)(F)F)c(Cl)cc23)C(C)C1 (centres undefined) + CCn1c(-c2cc(N3CCN(C)CC3)cnc2C(C)OC)c2c3cc(ccc31)-c1csc(n1)CC(NC(=O)C1CC1C)C(=O)N1CCCC(N1)C(=O)OCC(C)(C)C2
19.3

What about this compound? O=C(c1ccc(F)c(F)c1Nc1ccc(I)cc1F)N1CC(O)([C@@H]2CCCCN2)C1 + CCn1c(-c2cc(N3CCN(C)CC3)cnc2C(C)OC)c2c3cc(ccc31)-c1csc(n1)CC(NC(=O)C1CC1C)C(=O)N1CCCC(N1)C(=O)OCC(C)(C)C2
1.15

###

Tested on: 377384-186-R-J1-PDC complex spheroid viability
Experiment: Anticancer human tumor 377384-186-R-J1-PDC cell line growth inhibition [RAS];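 note: spheroids exposed to compounds for seven days before readout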
Details: second compound 0.1 µM; first compound 1 µM; stronger effect = lower value
Readout name: viability, T/C

Worked examples follow.
C[C@@H](NC(=O)c1ncnc(N)c1Cl)c1ncc(C(=O)Nc2cc(C(F)(F)F)c(Cl)cn2)s1 + C=CC(=O)N1CCN(c2nc(OCC3CCCN3C)nc3c(F)c(-c4nc(N)cc(C)c4C(F)(F)F)c(Cl)cc23)C(C)C1	115%
C=CC(=O)Nc1cc(Nc2nccc(-c3cn(C)c4ccccc34)n2)c(OC)cc1N(C)CCN(C)C + C#Cc1c(F)ccc2cc(O)cc(-c3ncc4c(N5CC6CCC(C5)N6)nc(OCC56CCCN5CC(F)C6)nc4c3F)c12	2.24%

What measured viability, T/C goes with CC(Nc1ccc2c(c1)OCCn1cc(N3C(=O)OCC3C(F)F)nc1-2)C(N)=O (stereo not drawn) + C#Cc1c(F)ccc2cc(O)cc(-c3ncc4c(N5CC6CCC(C5)N6)nc(OCC56CCCN5CC(F)C6)nc4c3F)c12 ?
2.11%

###

Tested on: 377384-186-R-J1-PDC complex spheroid viability
Experiment: Anticancer human tumor 377384-186-R-J1-PDC cell line growth inhibition [RAS]; active means viability on the fitted dose curve at most 10% of control; inactive means the rest;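 note: spheroids exposed to compounds for seven days before readout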
Details: second compound 0.0316 µM; first compound 3.16 µM
Form entry, call: pick from active, inactive

Illustrative cases are given below, each with its answer.
CCC(CC)c1cc(NC2CCC(N)C2)n2nccc2n1 (stereo not given) + C#Cc1c(F)ccc2cc(O)cc(-c3ncc4c(N5CC6CCC(C5)N6)nc(OCC56CCCN5CC(F)C6)nc4c3F)c12	active
NC1c2ccccc2OC12CCN(c1cnc3c(N4CCCc5ncccc54)n[nH]c3n1)CC2 (stereo not given) + C#Cc1c(F)ccc2cc(O)cc(-c3ncc4c(N5CC6CCC(C5)N6)nc(OCC56CCCN5CC(F)C6)nc4c3F)c12	active
CC(=O)OC12COC1CC(O)C1(C)C(=O)C(O)C3=C(C)C(OC(=O)C(O)C(NC(=O)OC(C)(C)C)c4ccccc4)CC(O)(C(OC(=O)c4ccccc4)C21)C3(C)C (stereo not given) + C#Cc1c(F)ccc2cc(O)cc(-c3ncc4c(N5CC6CCC(C5)N6)nc(OCC56CCCN5CC(F)C6)nc4c3F)c12	active
Cc1nc(N2CCC3(CC2)COC(C)C3N)c(CO)nc1Sc1ccnc(N)c1Cl (stereo not given) + C=CC(=O)N1CCN(c2nc(OCC3CCCN3C)nc3c(F)c(-c4nc(N)cc(C)c4C(F)(F)F)c(Cl)cc23)C(C)C1	inactive

Continue with the next molecule.
Could you kindly confirm the outcome this assay logged for CC(Nc1ccc2c(c1)OCCn1cc(N3C(=O)OCC3C(F)F)nc1-2)C(N)=O (stereo not given) + C=CC(=O)N1CCN(c2nc(OCC3CCCN3C)nc3c(F)c(-c4nc(N)cc(C)c4C(F)(F)F)c(Cl)cc23)C(C)C1 ?
inactive

###

System: 377384-186-R-J1-PDC complex spheroid viability
Assay: Anticancer human tumor 377384-186-R-J1-PDC cell line growth inhibition [RAS];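 note: spheroids exposed to compounds for seven days before readout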
Settings: second compound 0.00949 µM; first compound 0.3 µM; stronger effect = lower value
Reported viability, T/C is given for each of the following compounds.
Only the number, expressed in %, is required.

CCc1c2c(nc3ccc(O)cc13)-c1cc3c(c(=O)n1C2)COC(=O)[C@]3(O)CC + CCn1c(-c2cc(N3CCN(C)CC3)cnc2C(C)OC)c2c3cc(ccc31)-c1csc(n1)CC(NC(=O)C1CC1C)C(=O)N1CCCC(N1)C(=O)OCC(C)(C)C2	1.25
CC1(C)CCC(Nc2ncc(C(F)(F)F)c(-c3c[nH]c4c(P(C)(C)=O)c(C#N)ccc34)n2)CN1 (centres undefined) + CCn1c(-c2cccnc2C(C)OC)c2c3cc(ccc31)N1CCOC(CC(NC(=O)C(C(C)C)N(C)C(=O)C3(F)CCN(C(=O)C#CC(C)(C)N(C)C)CC3)C(=O)N3CCCC(N3)C(=O)OCC(C)(C)C2)C1	20.6

What measured viability, T/C goes with CCc1c2c(nc3ccc(O)cc13)-c1cc3c(c(=O)n1C2)COC(=O)[C@]3(O)CC + CCn1c(-c2cccnc2C(C)OC)c2c3cc(ccc31)N1CCOC(CC(NC(=O)C(C(C)C)N(C)C(=O)C3(F)CCN(C(=O)C#CC(C)(C)N(C)C)CC3)C(=O)N3CCCC(N3)C(=O)OCC(C)(C)C2)C1 ?
1.72

What about this compound? CC1(C)CCC(Nc2ncc(C(F)(F)F)c(-c3c[nH]c4c(P(C)(C)=O)c(C#N)ccc34)n2)CN1 (centres undefined) + CCn1c(-c2cc(N3CCN(C)CC3)cnc2C(C)OC)c2c3cc(ccc31)-c1csc(n1)CC(NC(=O)C1CC1C)C(=O)N1CCCC(N1)C(=O)OCC(C)(C)C2
5.21

###

Test system: 377384-186-R-J1-PDC complex spheroid viability
Experiment: Anticancer human tumor 377384-186-R-J1-PDC cell line growth inhibition [RAS]; active means viability on the fitted dose curve at most 10% of control; inactive means the rest;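 note: spheroids exposed to compounds for seven days before readout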
Details: second compound 0.00949 µM; first compound 0.0316 µM
Form entry, call: pick from active, inactive

O=C(c1ccc(F)c(F)c1Nc1ccc(I)cc1F)N1CC(O)([C@@H]2CCCCN2)C1 + CCn1c(-c2cc(N3CCN(C)CC3)cnc2C(C)OC)c2c3cc(ccc31)-c1csc(n1)CC(NC(=O)C1CC1C)C(=O)N1CCCC(N1)C(=O)OCC(C)(C)C2	active

Could you kindly confirm the outcome this assay logged for CC1(O)CCCC1n1c(=O)c(C(F)F)cc2cnc(NC3CCN(S(C)(=O)=O)CC3)nc21 (stereo not drawn) + CCn1c(-c2cccnc2C(C)OC)c2c3cc(ccc31)N1CCOC(CC(NC(=O)C(C(C)C)N(C)C(=O)C3(F)CCN(C(=O)C#CC(C)(C)N(C)C)CC3)C(=O)N3CCCC(N3)C(=O)OCC(C)(C)C2)C1 ?
inactive

What about this molecule? CCN1CCN(Cc2ccc(Nc3ncc(F)c(-c4cc(F)c5nc(C)n(C(C)C)c5c4)n3)nc2)CC1 + CCn1c(-c2cc(N3CCN(C)CC3)cnc2C(C)OC)c2c3cc(ccc31)-c1csc(n1)CC(NC(=O)C1CC1C)C(=O)N1CCCC(N1)C(=O)OCC(C)(C)C2
active

What about this molecule? CCN1CCN(Cc2ccc(Nc3ncc(F)c(-c4cc(F)c5nc(C)n(C(C)C)c5c4)n3)nc2)CC1 + CCn1c(-c2cccnc2C(C)OC)c2c3cc(ccc31)N1CCOC(CC(NC(=O)C(C(C)C)N(C)C(=O)C3(F)CCN(C(=O)C#CC(C)(C)N(C)C)CC3)C(=O)N3CCCC(N3)C(=O)OCC(C)(C)C2)C1
inactive

What about this molecule? C[C@@H](NC(=O)c1ncnc(N)c1Cl)c1ncc(C(=O)Nc2cc(C(F)(F)F)c(Cl)cn2)s1 + CCn1c(-c2cc(N3CCN(C)CC3)cnc2C(C)OC)c2c3cc(ccc31)-c1csc(n1)CC(NC(=O)C1CC1C)C(=O)N1CCCC(N1)C(=O)OCC(C)(C)C2
inactive

What about this molecule? Cc1nc(N2CCC3(CC2)COC(C)C3N)c(CO)nc1Sc1ccnc(N)c1Cl (stereo not drawn) + CCn1c(-c2cccnc2C(C)OC)c2c3cc(ccc31)N1CCOC(CC(NC(=O)C(C(C)C)N(C)C(=O)C3(F)CCN(C(=O)C#CC(C)(C)N(C)C)CC3)C(=O)N3CCCC(N3)C(=O)OCC(C)(C)C2)C1
inactive

What about this molecule? CCC(CC)c1cc(NC2CCC(N)C2)n2nccc2n1 (stereo not drawn) + CCn1c(-c2cccnc2C(C)OC)c2c3cc(ccc31)N1CCOC(CC(NC(=O)C(C(C)C)N(C)C(=O)C3(F)CCN(C(=O)C#CC(C)(C)N(C)C)CC3)C(=O)N3CCCC(N3)C(=O)OCC(C)(C)C2)C1
inactive

What about this molecule? NC1c2ccccc2OC12CCN(c1cnc3c(N4CCCc5ncccc54)n[nH]c3n1)CC2 (stereo not drawn) + CCn1c(-c2cc(N3CCN(C)CC3)cnc2C(C)OC)c2c3cc(ccc31)-c1csc(n1)CC(NC(=O)C1CC1C)C(=O)N1CCCC(N1)C(=O)OCC(C)(C)C2
active
